Data provenance is ChEMBL document CHEMBL1156391.

Molecular target: UniProt P11387
Sequence (P11387 whole entry): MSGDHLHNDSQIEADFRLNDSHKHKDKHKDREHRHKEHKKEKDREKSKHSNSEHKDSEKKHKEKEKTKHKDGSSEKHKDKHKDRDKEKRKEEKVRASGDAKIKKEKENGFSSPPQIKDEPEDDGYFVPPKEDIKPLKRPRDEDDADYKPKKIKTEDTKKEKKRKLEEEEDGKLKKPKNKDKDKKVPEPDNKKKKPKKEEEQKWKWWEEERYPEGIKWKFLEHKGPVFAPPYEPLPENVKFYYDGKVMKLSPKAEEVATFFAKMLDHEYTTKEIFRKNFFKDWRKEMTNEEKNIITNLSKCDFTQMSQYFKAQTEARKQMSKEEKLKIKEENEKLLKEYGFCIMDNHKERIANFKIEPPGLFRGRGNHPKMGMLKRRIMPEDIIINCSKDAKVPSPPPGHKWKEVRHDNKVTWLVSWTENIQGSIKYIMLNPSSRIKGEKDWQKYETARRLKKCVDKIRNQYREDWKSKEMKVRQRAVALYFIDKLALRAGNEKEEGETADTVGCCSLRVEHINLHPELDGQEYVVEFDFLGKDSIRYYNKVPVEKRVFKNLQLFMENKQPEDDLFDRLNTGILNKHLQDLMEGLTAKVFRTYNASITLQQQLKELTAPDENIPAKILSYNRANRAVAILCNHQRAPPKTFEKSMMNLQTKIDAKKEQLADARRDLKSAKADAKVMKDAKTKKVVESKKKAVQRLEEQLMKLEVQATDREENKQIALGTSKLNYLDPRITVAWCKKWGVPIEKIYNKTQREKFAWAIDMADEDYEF
Test: Inhibition of human topoisomerase 1 assessed as relaxation of supercoiled pBR322 DNA up to 200 uM by agarose gel electrophoresis
Activity calls are given as the source filed them. No cut-off for these calls is given here.
measurement.type: Activity

C=C(C)[C@@H]1CC[C@]2(C)CC[C@]3(C)[C@H](CC[C@@H]4[C@@]5(C)CC[C@H](O)[C@](C)(CO)[C@@H]5CC[C@]43C)[C@H]12    inactive
C=C(C)[C@@H]1CC[C@]2(CO)CC[C@]3(C)[C@H](CC[C@@H]4[C@@]5(C)CC[C@H](O)C(C)(C)[C@@H]5CC[C@]43C)[C@@H]12    inactive
CC1(C)CC[C@]2(C)C[C@H](O)[C@]3(C)C(=CC[C@@H]4[C@@]5(C)CC[C@H](O)[C@](C)(CO)[C@@H]5CC[C@]43C)[C@@H]2C1    inactive
